System: human SMAD7 mRNA
Assay: Dose-dependent inhibition of human SMAD7 mRNA expression in Hep3B cells (Example 3, Study 1 and 2)
Type: cell-based
Settings: 2220 nM, electroporation, approximately 16 hours, Study 2
Strand notation (5' to 3'): a small letter for the sugar, then the base; units joined by * are phosphorothioate-linked, units joined directly phosphodiester-linked; [ ] holds rarer units or linkages, { } end groups; capitals alone tell only the bases. k = constrained ethyl (cEt); [5mC] = 5-methylcytosine; d = 2'-deoxy (DNA)
Entry flag: true if % inhibition of SMAD7 mRNA expression reaches 40%; false if it does not.

Worked set:
799467 (antisense kG*k[5mC]*kA*dG*dA*d[5mC]*dA*dG*dA*dA*dG*d[5mC]*dT*k[5mC]*kT*kA) [compound 799467] ... false
799858 (kG*kT*kA*dA*dT*dT*dT*dA*dG*d[5mC]*dA*dA*dT*kT*k[5mC]*k[5mC]; antisense) [compound 799858] ... true
798781 (CGTAAGATTCACAGCA; 3-10-3 cEt gapmer, further chemistry not given here) [compound 798781] ... true
799605 (k[5mC]*k[5mC]*kA*dA*dT*dA*dA*dA*dG*dT*dT*d[5mC]*d[5mC]*k[5mC]*kT*kT; antisense) [compound 799605] ... true
798954 (antisense kA*kT*kA*dA*dG*d[5mC]*dT*dA*dT*dT*dT*d[5mC]*dT*k[5mC]*kA*kA) [compound 798954] ... false

Turning now to a further record.
Request: // inclusive: % inhibition of SMAD7 mRNA expression at least 40%? input: 829980 (kT*kT*kG*dA*dT*dA*dT*dT*dT*dA*dG*d[5mC]*dT*kG*kT*k[5mC]; antisense) [compound 829980]
Result: true
